target: NADPH oxidase 4 (Homo sapiens) (UniProt Q9NPH5); experiment: NOX4-dependent H2O2 signal modulators, primary screen, NOX inhibitor project, cell-based, HEK293-NOX4, tetracycline-induced, Amplex Red fluorescence (AID 1160); conditions: 45 min, higher = more signal, called active from +8 up or from −8 down
Sequence (Q9NPH5 whole entry, looked up): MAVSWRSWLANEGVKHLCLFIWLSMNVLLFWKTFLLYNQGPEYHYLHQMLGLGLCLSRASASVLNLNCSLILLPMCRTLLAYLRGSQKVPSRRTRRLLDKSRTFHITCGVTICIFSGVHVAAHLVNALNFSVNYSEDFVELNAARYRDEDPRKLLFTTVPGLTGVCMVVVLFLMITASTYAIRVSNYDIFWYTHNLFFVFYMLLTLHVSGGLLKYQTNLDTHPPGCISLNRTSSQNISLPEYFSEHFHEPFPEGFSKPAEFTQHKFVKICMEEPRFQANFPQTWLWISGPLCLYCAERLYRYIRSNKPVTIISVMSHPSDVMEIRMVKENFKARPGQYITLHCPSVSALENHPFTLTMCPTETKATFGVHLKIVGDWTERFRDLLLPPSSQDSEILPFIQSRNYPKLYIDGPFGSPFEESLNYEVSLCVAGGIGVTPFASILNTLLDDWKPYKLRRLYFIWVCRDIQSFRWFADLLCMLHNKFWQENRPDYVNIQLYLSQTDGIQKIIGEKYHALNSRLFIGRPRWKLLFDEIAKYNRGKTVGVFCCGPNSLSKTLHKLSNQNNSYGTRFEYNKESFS
Quick list: z-score per entry.
Give a plain numeric answer without units written out.

{"columns": ["COMPOUND", "z-score"],
 "data": [
  ["CCCCCC1=C2CNC(CCC)(C(=O)OC)C=C2C(C)C1=O (stereo unspecified)", -1.52],
  ["CN1C(=O)C2C=CC(C(O)C3CCCCC3)N(Nc3ccc([N+](=O)[O-])cc3[N+](=O)[O-])C2C1=O (stereo unspecified)", 0.889],
  ["CC(C)[C@@H](CO)NC(=O)[C@H]1[C@@H](c2ccccc2)N(c2ccccc2)O[C@@H]1C", 0.366],
  ["CCOc1cc(C(O)C2C=CC3C(=O)N(c4ccccc4)C(=O)C3N2Nc2ccccc2)ccc1O (stereo unspecified)", -1.37],
  ["C=CC[C@]1(C(=O)N2CCCCC2)N=C(c2ccc(OCCCO)cc2)O[C@H]1c1ccccc1", -0.0137],
  ["COc1ccc(C(O)C2C=CC3C(=O)NC(=O)C3N2Nc2ccccn2)cc1 (stereo unspecified)", -2.56],
  ["COc1ccc(NN2C(C(O)c3ccc([N+](=O)[O-])cc3)C=CC3C(=O)N(C4CCCCC4)C(=O)C32)cc1 (stereo unspecified)", -2.3],
  ["COCC(=C=CC[C@H](O)c1ccccc1OCCO)C[C@H](O)c1cc(Cl)cc(Cl)c1O", -2.45]
]}

Challenge: # get_value(readout='z-score', item= O=C1O[C@@H](c2ccccc2)[C@@H](c2ccccc2)N2[C@@H](c3ccccc3OCCO)[C@]3(C(=O)Nc4ccc(C#CC5=CCCCC5)cc43)[C@@H](C(=O)Nc3nc4ccccc4s3)[C@H]12 )
Response given: 0.387

Challenge: Entry CCOC(=O)[C@H]1C/C=C/C[C@H](C(=O)OCC)C(=O)O[C@H]2[C@@H](OC)O[C@H](CO)[C@@H](OC(=O)Nc3ccc(C#N)cc3)[C@@H]2OC1=O : reported z-score = ?
Response given: 0.2

Challenge: Quick check: z-score of C=C(CCCC)C(=O)CC[C@H](OC(=O)c1cccnc1)c1ccccc1OCCO ?
Response given: -0.324

====

target: NADPH oxidase 4 (Homo sapiens) (UniProt Q9NPH5); test: NOX4-dependent H2O2 signal modulators, primary screen, NOX inhibitor project, cell-based, HEK293-NOX4, tetracycline-induced, Amplex Red fluorescence (AID 1160); settings: 45 min, higher = more signal, called active from +8 up or from −8 down
Decision: z-score compared against 0.4; not below it gives 1 (yes), below it gives 0 (no).

{"columns": ["INPUT SMILES", "LABEL VALUE"],
 "data": [
  ["CC(C)OC(=O)C=C1C[C@@H](c2ccccc2C(F)(F)F)O[C@@H](c2ccccc2C(F)(F)F)O1", "0 (no)"]
]}

Challenge: Answer whether z-score of CC(C)N1C(=O)c2ccccc2[C@](C)(C(=O)NCc2ccccc2)[C@@H]1c1ccc(CO)cc1 is greater than or equal to 0.4.
Response given: 0 (no)

Challenge: Record CN(C)CCCNC(=O)[C@@]1(C)c2ccccc2C(=O)N(Cc2cc(F)cc(C(F)(F)F)c2)[C@H]1c1ccc(CO)cc1 ; criterion: z-score no lower than 0.4. Met?
Response given: 1 (yes)
